Values were extracted from patent US20250250251A1.

Experiment: Assay C: permeability in CACO-2 cells
Type: in vitro ADME
Settings: human, Caco-2, pH 7.2
Method: Caco-2 cells (1-2×10^5 cells/1 cm^2 area) are seeded on filter inserts (Costar transwell polycarbonate or PET filters, 0.4 μm pore size) and cultured (DMEM) for 10 to 25 days. Compounds are dissolved in appropriate solvent (like DMSO, 1-20 mM stock solutions). […] The transport solution (TL) is applied to the apical or basolateral donor side for measuring A-B or B-A permeability (3 filter replicates), respectively. […]
REPORTED_ENDPOINT: Papp A→B

Some solved cases for reference:
Cn1cc2c(-c3cccc(C#N)c3N3CCC(c4nncn4C)CC3)cncc2n1 [Compound 16, reference compound] | < 0.6 ×10⁻⁶ cm/s
Cn1cnnc1C1CCN(c2c(-c3ccnnc3)ccc(Cl)c2C#N)CC1 [Compound 33, reference compound] | 0.2 ×10⁻⁶ cm/s
Cn1cnnc1C1CCN(c2c(C#N)cccc2-c2ccc3nonc3c2)CC1 [Compound 19, reference compound] | 19 ×10⁻⁶ cm/s

Next compound, please.
Quick note, Papp A→B for COc1ccc(-c2ccnnc2)c(N2CCC(c3nncn3C)CC2)c1C#N [Compound 26, reference compound] landed at < 0.02 ×10⁻⁶ cm/s

###

Tested on: CACO-2 cells
Test: Assay C: permeability in CACO-2 cells
Assay type: in vitro ADME
Settings: pairs with and without 4-fluoropiperidyl, CACO2 cells
Protocol: Caco-2 cells (1-2×10^5 cells/1 cm^2 area) are seeded on filter inserts (Costar transwell polycarbonate or PET filters, 0.4 μm pore size) and cultured (DMEM) for 10 to 25 days. Compounds are dissolved in appropriate solvent (like DMSO, 1-20 mM stock solutions). […] The transport solution (TL) is applied to the apical or basolateral donor side for measuring A-B or B-A permeability (3 filter replicates), respectively. […]
# CACO2 Perm. per record follows

Some solved cases for reference:
Cn1cnnc1C1(F)CCN(c2c(C#N)ccnc2-c2ccc(F)nc2)CC1 | 28.0 10^−6 cm/sec
Cn1cnnc1C1(F)CCN(c2c(-c3ccc(F)nc3)ccnc2C#N)CC1 | 11.0 10^−6 cm/sec
Cn1cnnc1C1(F)CCN(c2c(C#N)cccc2-c2ccc(F)nc2)CC1 | 50.0 10^−6 cm/sec

Observed CACO2 Perm. on CACO-2 cells, entry `Cn1cnnc1C1CCN(c2c(C#N)cc(C(F)(F)F)cc2-c2ccc(F)nc2)CC1` , equals 9.0 10^−6 cm/sec

Observed CACO2 Perm. on CACO-2 cells, entry `Cn1cnnc1C1CCN(c2c(C#N)cccc2-c2cnc3nn(C(C)(C)C)cc3c2)CC1` , equals 0.5 10^−6 cm/sec

Observed CACO2 Perm. on CACO-2 cells, entry `Cn1cnnc1C1(F)CCN(c2c(C#N)cc(Cl)cc2-c2cnc3nn(C(C)(C)C)cc3c2)CC1` , equals 18.0 10^−6 cm/sec

Observed CACO2 Perm. on CACO-2 cells, entry `Cn1cnnc1C1CCN(c2c(-c3cnc4nn(C(C)(C)C)cc4c3)ccc(C(F)(F)F)c2C#N)CC1` , equals 0.2 10^−6 cm/sec

Observed CACO2 Perm. on CACO-2 cells, entry `Cn1cnnc1C1CCN(c2c(C#N)cc(Cl)cc2-c2ccc(F)nc2)CC1` , equals 23.0 10^−6 cm/sec

Observed CACO2 Perm. on CACO-2 cells, entry `Cn1cnnc1C1CCN(c2c(C#N)cc(F)cc2-c2ccc(F)nc2)CC1` , equals 24.0 10^−6 cm/sec

Observed CACO2 Perm. on CACO-2 cells, entry `Cn1cnnc1C1(F)CCN(c2c(-c3cnc4nn(C(C)(C)C)cc4c3)ccc(C(F)(F)F)c2C#N)CC1` , equals 1.7 10^−6 cm/sec

Observed CACO2 Perm. on CACO-2 cells, entry `Cn1cnnc1C1(F)CCN(c2c(C#N)cc(C(F)(F)F)cc2-c2ccc(F)nc2)CC1` , equals 40.5 10^−6 cm/sec
